targetOrTestSystem: T1, Human CTGF with a human IgG1 Fc Tag (Homo sapiens, UniProt P29279, H83D)
T1 construct: purchased Creative Biomart
T1 sequence (P29279 with tags, fused parts or gaps H83D): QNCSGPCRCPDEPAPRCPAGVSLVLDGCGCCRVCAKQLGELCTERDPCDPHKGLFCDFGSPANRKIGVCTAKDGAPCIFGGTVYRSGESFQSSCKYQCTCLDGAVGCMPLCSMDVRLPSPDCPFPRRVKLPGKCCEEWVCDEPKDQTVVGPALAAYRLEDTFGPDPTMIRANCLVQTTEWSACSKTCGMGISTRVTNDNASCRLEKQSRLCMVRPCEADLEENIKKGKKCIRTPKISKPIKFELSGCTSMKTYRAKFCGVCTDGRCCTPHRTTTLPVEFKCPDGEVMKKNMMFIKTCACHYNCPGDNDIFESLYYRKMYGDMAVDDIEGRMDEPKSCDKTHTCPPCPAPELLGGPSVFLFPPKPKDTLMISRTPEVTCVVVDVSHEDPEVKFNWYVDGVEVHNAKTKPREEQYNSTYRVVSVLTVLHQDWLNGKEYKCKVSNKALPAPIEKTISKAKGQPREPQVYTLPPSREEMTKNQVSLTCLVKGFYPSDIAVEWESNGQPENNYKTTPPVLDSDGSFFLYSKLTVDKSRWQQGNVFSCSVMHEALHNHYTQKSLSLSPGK
method: SPR epitope analysis (simultaneous binding)
measurementParameters: SPR, mixed and injected simultaneously at 750 nM or 1000 nM
reportedProperty: Simultaneous binding with SEQ ID NO: 25

molecule	testResult
SEQ ID NO: 25: parent CTGF-binding hNGAL lipocalin mutein (protein, lipocalin mutein) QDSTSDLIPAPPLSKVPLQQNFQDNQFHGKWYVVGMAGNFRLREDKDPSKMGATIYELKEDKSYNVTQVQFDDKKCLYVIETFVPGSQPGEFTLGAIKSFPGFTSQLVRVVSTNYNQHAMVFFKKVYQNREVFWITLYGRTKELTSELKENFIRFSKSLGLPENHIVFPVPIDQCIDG	no
SEQ ID NO: 9: parent CTGF-binding hNGAL lipocalin mutein (protein, lipocalin mutein) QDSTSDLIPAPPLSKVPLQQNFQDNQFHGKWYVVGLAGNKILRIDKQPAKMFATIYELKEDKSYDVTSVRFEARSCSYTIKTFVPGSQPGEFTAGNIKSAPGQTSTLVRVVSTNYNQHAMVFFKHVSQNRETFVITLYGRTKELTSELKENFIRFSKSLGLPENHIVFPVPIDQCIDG	yes
SEQ ID NO: 29: parent CTGF-binding hNGAL lipocalin mutein (protein, lipocalin mutein) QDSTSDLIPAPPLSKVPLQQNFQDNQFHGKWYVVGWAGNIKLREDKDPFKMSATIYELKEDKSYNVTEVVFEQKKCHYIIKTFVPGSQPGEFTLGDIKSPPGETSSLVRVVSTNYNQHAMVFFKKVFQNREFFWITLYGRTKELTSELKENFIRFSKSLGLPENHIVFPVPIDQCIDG	no
SEQ ID NO: 7: parent CTGF-binding hNGAL lipocalin mutein (protein, lipocalin mutein) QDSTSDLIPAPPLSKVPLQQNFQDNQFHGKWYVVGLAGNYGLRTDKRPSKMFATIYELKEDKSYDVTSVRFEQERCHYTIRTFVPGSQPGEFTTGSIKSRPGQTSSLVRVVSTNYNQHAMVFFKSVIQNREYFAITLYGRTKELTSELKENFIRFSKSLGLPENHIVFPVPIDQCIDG	yes
